target: T1, Suc-AAPM-pNA; conditions: scale: relative to the substrate with the highest activity
T1 chain: AAPM
PARAMETER: relative activity (initial increase in OD405)
// response body must contain only the number

PROTEIN	READOUT_VALUE
Serine protease from Nocardiopsis sp NRRL 18262 (protein) ADIIGGLAYTMGGRCSVGFAATNAAGQPGFVTAGHCGRVGTQVTIGNGRGVFEQSVFPGNDAAFVRGTSNFTLTNLVSRYNTGGYATVAGHNQAPIGSSVCRSGSTTGWHCGTIQARGQSVSYPEGTVTNMTRTTVCAEPGDSGGSYISGTQAQGVTSGGSGNCRTGGTTFYQEVTPMVNSWGVRLRT	0.0003

Next protein, please.
Req: Please give the measured relative activity (initial increase in OD405) for this protein: Trypsin from Fusarium oxysporum (protein) IVGGTSASAGDFPFIVSISRNGGPWCGGSLLNANTVLTAAHCVSGYAQSGFQIRAGSLSRTSGGITSSLSSVRVHPSYSGNNNDLAILKLSTSIPSGGNIGYARLAASGSDPVAGSSATVAGWGATSEGGSSTPVNLLKVTVPIVSRATCRAQYGTSAITNQMFCAGVSSGGKDSCQGDSGGPIVDSSNTLIGAVSWGNGCARPNYSGVYASVGALRSFIDTYA
Resp: 0
